Tested on: LOX IMVI
Test method notes: NCI tumour cell line growth inhibition, 48 h
The source made the active and inactive calls. Cut-off read from the data, not from the text of the source: active = GI50 up to about 1.1 µM and inactive = higher.
Just give me one of these, please: yes = active, no = inactive

Could you please tell me the result logged for C[C@]12CC[C@H](O)C=C1CC[C@@H]1[C@@H]2CC[C@]2(C)C(c3ccc(=O)oc3)CC[C@]12O (some centres undefined) in this assay?
yes

Just curious, what result did N#CC(C(=O)CCC(=O)Nc1cccc(Cl)c1)c1ccccc1 (centres undefined) get here?
no

For this compound, state the assay outcome: "COC1=CC(=O)C=C(OC)C1=O"
no

Please state the recorded outcome for this compound: "CSc1c(C#N)c(O)nc(N)c1C(=O)Nc1ccc(C)cc1"
no

* * *

System: HOP-62
Test method notes: NCI tumour cell line growth inhibition, 48 h
The source made the active and inactive calls. No stated cut-off is given here; in the data, active = GI50 up to about 1.1 µM and inactive = higher.
Could you please report measured GI50 for the items listed next?

I am curious: what GI50 value has been reported for NC(=S)N/N=C1\c2ccccc2CCC1CCC1(O)CCc2ccccc2C1=O (stereo not drawn) ?
57.4 µM (inactive)

Return reported GI50; argument: "COc1cc(C2C(C(=O)Nc3ccc([N+](=O)[O-])cc3)=C(C)NC(C)=C2C(=O)Nc2ccc([N+](=O)[O-])cc2)ccc1O"
18.4 µM (inactive)

Query: GI50; subject: "O=C(c1ccccc1)n1cc(-c2ccccc2)c2c(=O)nc[nH]c21"
> 100 µM (inactive)

# input compound: C=C1C(=O)[C@]23[C@H](O)[C@H]1CC[C@H]2[C@@]12CO[C@@]3(O)C[C@@H]1C(C)(C)CC[C@@H]2O [MEGATHYRIN A] ; wanted: its GI50
> 25 µM (inactive)

What value of GI50 has been recorded for this entry: "Cc1ccc(C)c(N2C(=O)C(=O)C(c3nc4ccccc4s3)C(=O)C2=O)c1"
> 100 µM (inactive)

What GI50 value was documented for this compound, "O=C1Nc2ccccc2S/C1=C\c1ccccc1C(F)(F)F" ?
> 100 µM (inactive)

Given the compound O=C(O)CCC(NC(=O)c1ccc(Nc2cnc3ccc(C(F)(F)F)cc3n2)cc1)C(=O)O (stereo not drawn) , what is its reported GI50?
> 100 µM (inactive)

Name the reported GI50 value associated with the compound "Cn1cc(C(=O)NCCC(=N)N)cc1NC(=O)C1=[N+](C)C=C(NC(=O)c2cccc(C(=O)NC3=CC(C(=O)Nc4cc(C(=O)NCCC(=N)N)cn4C)=[N+](C)C3)c2)C1"
> 100 µM (inactive)

* * *

Test system: RPMI-8226
Test method notes: NCI tumour cell line growth inhibition, 48 h
The source made the active and inactive calls. Cut-off read from the data, not from the text of the source: active = GI50 up to about 1.1 µM and inactive = higher.
Select the correct class. Options are yes (1) for active, no (0) for inactive and nothing else.

Would you mind telling me which call this test gave "CCN(CC)c1ccc2cc(C(N)=S)c(=N)oc2c1" ?
no (0)

Status in this test for OC(C1CCCCCCCCCC1)C(O)C1CCCCCCCCCC1 (stereo unspecified) ?
no (0)

Just curious, what result did Cc1nn(-c2ccccc2)c2c1C(c1cc3ccccc3nc1Cl)NC(=S)N2 (stereo unspecified) get here?
no (0)

Tell me the assay call for COc1ccc(C2c3cc4c(cc3OC(O)(CO)C2C(=O)O)OCO4)c(OC)c1OC.COc1ccc(C2c3cc4c(cc3OC3(O)COC(=O)C23)OCO4)c(OC)c1OC (stereo unspecified) please.
no (0)

For this molecule, state the assay outcome: CC(=O)OC1(C#N)CC2OC1C1C2N1C(=O)c1ccccc1 (stereo unspecified)
no (0)

What did this assay record as the result for CC(NC(=O)Cc1ccc(OP(=O)(OCc2ccc([N+](=O)[O-])o2)N(C)CCCCCl)cc1)c1ccc(OCC2CCCCC2)c(C(N)=O)c1 (stereo unspecified) ?
yes (1)

* * *

Reported values: GI50 for HCT-15, one per item.

Please give the measured GI50 for this compound: "O=C(Nc1ccc2ncccc2c1)Nc1ccc2ncccc2c1"
> 100 µM

Suppose we examine the compound CCCOC(=O)C1C(c2ccc(OC)cc2)NC(c2ccc(OC)cc2)C(C(=O)OCCC)S1(=O)=O (stereo not drawn) ; what GI50 value has been reported?
> 10 µM

Query (compound): COc1ccc(N(CN2C(=O)CCC2OC)C(C)=O)cc1 (stereo not drawn) ; field requested: GI50
> 100 µM

* * *

Answer each item with its documented GI50.
Test system: IGROV-1
Test method notes: NCI tumour cell line growth inhibition, 48 h
The source made the active and inactive calls. Cut-off read from the data, not from the text of the source: active = GI50 up to about 1.1 µM and inactive = higher.

I'm curious: which GI50 was measured for Nc1nc2c(ncn2C2OC(CO)C(O)C2N)c(=O)[nH]1 (stereo not given) tested on IGROV-1?
> 100 µM (inactive)

Given the entry "COc1ccccc1NC(=O)CC(=O)NNCC(=O)Nc1nnc(-c2ccccc2)o1" , what GI50 was observed with IGROV-1?
> 100 µM (inactive)

Give the reported GI50 for CCCCCCCCCCCCOC1C(COCCN2CCCC2)OC2OC(C)(C)OC21 (stereo not given) (system: IGROV-1).
1.72 µM (inactive)

Lab note: need GI50 for "O=C1Nc2ccccc2S/C1=C\c1ccccc1C(F)(F)F" on IGROV-1, anyone have it?
29 µM (inactive)

Form field - read-out: GI50; system: IGROV-1; submitted item: "O=C(O)c1ccccc1/C=N/N=C1c2ccccc2-c2ccccc21"
43.3 µM (inactive)

GET /values?readout=GI50&system=IGROV-1&item= "Cc1ccc(O)c(-c2cc(-c3cccc(Br)c3)on2)c1"
14.5 µM (inactive)

# value lookup — system IGROV-1, readout GI50, item "O=C(/C(=C\c1ccccc1)CN1CCOCC1)c1ccc(Br)cc1"
4.97 µM (inactive)

Could you share what GI50 was measured for OC(/C(=N/c1ccccc1)c1ccccc1)c1ccccc1 (stereo not given) , tested on IGROV-1?
9.46 µM (inactive)

// fetch IGROV-1 GI50 for COc1ccc([C@]23CCC4(OCC(C)(C)CO4)[C@H]4CON(O[C@H](O[C@@H]5CCCCC5C(C)(C)c5ccccc5)C2)[C@@H]43)cc1OC (stereo not given in full)
32.7 µM (inactive)

Field: GI50 (IGROV-1). Entry: "Cc1ccc(S(=O)(=O)SCc2ccccc2)cc1"
39.1 µM (inactive)

What value of GI50 on IGROV-1 does "Cc1cccc(C)c1NC(=O)C(=O)CC(=O)c1cccc([N+](=O)[O-])c1" have?
> 100 µM (inactive)

GI50 of "CCCCCCCCCCCC[N+](CCCCCCCCCCCC)=C1SCCS1" on IGROV-1?
10.5 µM (inactive)

Which GI50 is reported with IGROV-1 for this entry: "Cc1[nH]c2cc([N+](=O)[O-])ccc2c1[N+](=O)[O-]" ?
26.2 µM (inactive)

Enter reported GI50 observed with IGROV-1 for CC(=O)OC1COC(N2CCc3cc([N+](=O)[O-])ccc32)C(OC(C)=O)C1OC(C)=O (stereo not given)
> 100 µM (inactive)

Report GI50 for COc1ccc(-c2nc(N)c3ncn(C4OC(CO)C(O)C4O)c3n2)cc1 (stereo not given) tested on IGROV-1.
> 100 µM (inactive)

* * *

Hi there, I'd appreciate the recorded GI50 for every entry that follows.
Test system: KM12
Test method notes: NCI tumour cell line growth inhibition, 48 h
Active and inactive are the calls of the source. Cut-off read from the data, not from the text of the source: active = GI50 up to about 1.1 µM and inactive = higher.

Quick check: GI50 of "O=NN(CCCl)C(=O)N[C@H]1CCCC[C@@H]1Cl" ?
> 100 µM (inactive)

Any idea what its GI50 is? The compound is "O=S(=O)(O)c1ccc(/N=N/c2ccc(/N=N/c3c(O)ccc4ccccc34)cc2)cc1"
98.6 µM (inactive)

Reported GI50 for COc1ccc(C2=C(Cl)c3cc(OC)c(OC)cc3C2OC)cc1OC (configuration not stated) : what is it?
> 100 µM (inactive)

Returns the measured GI50 for the input compound. Input: "c1ccc2c(c1)n1nnnc1c1nnnn21"
> 100 µM (inactive)

For the compound shown here, "Cc1ccc(O)c(-c2cc(-c3cccc(Br)c3)on2)c1" , give the reported GI50.
20.3 µM (inactive)

May I ask what GI50 has been recorded for CC(C)c1cccc(C(C)C)c1NC(=O)C(=O)CC(=O)CC(c1ccccc1)c1c(O)oc2ccccc2c1=O (configuration not stated) ?
> 100 µM (inactive)

Find the recorded GI50 belonging to COc1ccc(OC)c(N2C(=O)CSC2c2cc(OC)c(OC)c(OC)c2)c1 (configuration not stated) and report it.
81.7 µM (inactive)

Reported GI50, compound "O=C(/C(=C\c1ccccc1)CN1CCOCC1)c1ccc(Br)cc1" : ____
1.87 µM (inactive)

Suppose we examine the compound "O=C1NC(S(=O)(=O)O)=NNC12c1ccccc1-c1ccccc12" ; what GI50 value has been reported?
> 10 µM (inactive)

Which GI50 is listed for "CCNC(=S)NNC(=O)CSc1nc2ccc(I)cc2c(=O)n1Cc1ccccc1" ?
8.77 µM (inactive)

Which GI50 value belongs to CC(C)C1CN1CC(O)Cn1ccnc1[N+](=O)[O-] (configuration not stated) ?
> 100 µM (inactive)

Dear colleague, I am looking for the recorded GI50 of the following compound: "COc1cccc(C(=O)N[C@@H]2[C@H](O)[C@@H](CO)O[C@H]2n2cnc3c(N)ncnc32)c1"
> 100 µM (inactive)

# query: GI50 of entry O=C1C2=Nc3ccccc3C(O)(C(=O)O)N2c2ccccc21 (configuration not stated)
26.9 µM (inactive)

Returns the measured GI50 for the input compound. Input: "Brc1ccc(/C=N/C23CC4CC(CC(C4)C2)C3)cc1"
> 100 µM (inactive)

Reported GI50 for "COc1cccc2cc(C(=O)Nc3ccccc3)c(=N)oc12" : what is it?
> 29.6 µM (inactive)

Please look up its GI50: "O=[N+]([O-])c1ccc(/N=N/c2c(O)ccc3cc(S(=O)(=O)O)cc(S(=O)(=O)O)c23)cc1"
> 100 µM (inactive)

Param item = "CN(C)CCCN1c2ccc([N+](=O)[O-])cc2CCc2cccc([N+](=O)[O-])c21" ; retrieve measured GI50.
15.6 µM (inactive)

Returns the measured GI50 for the input compound. Input: "c1cc2nnc1SCCSCCSc1ccc(nn1)SCCSCCS2"
> 100 µM (inactive)

Fill in the blank: the reported GI50 of "Cc1[nH]c2cc([N+](=O)[O-])ccc2c1[N+](=O)[O-]" is ____.
21.3 µM (inactive)

Fill in: GI50 of "CN(C)c1ccc(N2C(=S)SC(=N\c3ccccc3)/C2=N/c2ccccc2)cc1" is ___
> 100 µM (inactive)

Can you share its GI50? I mean this compound: COC(=O)c1sc2ncc3c(c2c1N)CC(C)CC3 (configuration not stated)
> 100 µM (inactive)

Returns the measured GI50 for the input compound. Input: CC1=CC(=O)CC(C)(C)C1(O)/C=C/C(C)=C/C(=O)O (configuration not stated)
> 100 µM (inactive)

Data request, read-out GI50, for "CC(C)(C)c1cc(Cc2ccc([N+](C)(C)C)cc2)c(O)c(C(C)(C)C)c1"
15.7 µM (inactive)

I am curious: what GI50 value has been reported for "O=C1Nc2ccccc2S/C1=C\c1ccccc1C(F)(F)F" ?
> 100 µM (inactive)

Request the reported GI50 associated with O=C1C=CC2CCC1C2 (configuration not stated)
32.4 µM (inactive)

Request the reported GI50 associated with "Oc1c(Br)cc(Br)cc1CN(Cc1cc(Br)cc(Br)c1O)C1CCCCC1"
31.9 µM (inactive)

Please report the recorded GI50 for CCC1(c2ccccc2)C(=O)N=C(c2ccccc2)N1CCc1ccccc1 (configuration not stated) .
> 100 µM (inactive)
